# experimental details: physchem
# condition parameters: octan-1-ol/water, pH 7.4, LogD7.4
observation type: logD
One number for each entry.

[
  {
    "compound": "CC(C)N(C(=O)C(c1cccnc1)C(CNC(=O)NCc1ccccc1F)c1ccccc1)C(C)C (stereo not given)",
    "logD": 4.2
  },
  {
    "compound": "COc1ccc(CC(C)(C)NC[C@H](O)c2cc(O)cc3c2OCC(=O)N3)cc1",
    "logD": 0.79
  },
  {
    "compound": "Cn1cnc(-c2ccccc2)c1C#Cc1ccnc(N)n1",
    "logD": 2.94
  },
  {
    "compound": "CC1(C)C(=O)Nc2ccccc21",
    "logD": 2.3
  },
  {
    "compound": "CC(C)CNCc1ccc(-c2ccccc2S(=O)(=O)N2CCCC2)cc1",
    "logD": 1.9
  }
]

Provide each entry's logD from the list below.
1. O=C(CO)N1CCC[C@H]1COc1cccc2ncnc(Nc3ccc(OCc4ccccn4)c(Cl)c3)c12
2. C[C@H](N)C(=O)N[C@H](/C=C/S(=O)(=O)c1ccccc1)CCc1ccccc1
3. COc1c(Nc2ccc(S(C)(=O)=O)nc2C)ncnc1OC1CCN(C(=O)OC(C)C)CC1
4. CS(=O)(=O)c1cccc(Nc2nccc(Nc3c(Cl)ccc4ccoc34)n2)c1
5. CC(=O)N[C@@H](C)c1ccc(Nc2ncc3cc(-c4ccncc4)ccc3n2)cc1

1. 3.62
2. 1.66
3. 2.4
4. 3.7
5. 3.17

----------
# experimental details: physchem
observation type: pKa
Give bare numbers.

Worked examples follow.
[
  {
    "compound": "COc1ccc(CCN2CCC(Nc3nc4ccccc4n3Cc3ccc(F)cc3)CC2)cc1",
    "pKa": 6.33
  },
  {
    "compound": "CC1=NC(c2cccc(-c3cncc(Cl)c3)c2)(C2CC2)N=C1N (centres undefined)",
    "pKa": 2.28
  },
  {
    "compound": "O=C(O)c1ccccc1N1CCC(CN2CCC(Oc3ccc(Cl)c(Cl)c3)CC2)CC1",
    "pKa": 7.7
  },
  {
    "compound": "CN(C)CCC(c1ccc(Cl)cc1)c1ccccn1 (centres undefined)",
    "pKa": 5.86
  },
  {
    "compound": "O=C(O)[C@@H](Cc1ccccc1)N1CCC(CN2CCC(Oc3ccc(Cl)c(Cl)c3)CC2)CC1",
    "pKa": 7
  }
]

Provide each entry's pKa from the list below.
1. O=C(O)c1cccc(CN2CCC(CN3CCC(Oc4ccc(Cl)c(Cl)c4)CC3)CC2)c1
2. O=C(O)C(c1ccccc1)N1CCC(CN2CCC(Oc3ccc(Cl)c(Cl)c3)CC2)CC1 (centres undefined)
3. O=C(NCC12CC3CC(CC(C3)C1)C2)c1cc(CN2CC3CNCC(C2)O3)ccc1Cl

7.7
7.7
9

Provide only the value of recorded pKa for O=C(O)[C@H](Cc1ccccc1)N1CCC(CN2CCC(Oc3ccc(Cl)c(Cl)c3)CC2)CC1
7.75

----------
Field: log10 microsomal CLint. Provide a value for each of the compounds that follow.
# experimental details: in vitro
# condition parameters: human, liver microsomes
Quick note: numbers are log10 of microsomal CLint, with µL/min/mg as the unit.

Worked examples follow.
[
  {
    "mol": "COc1cnc(-c2ccccn2)nc1N(C)c1ccccc1",
    "log10 microsomal CLint": 2.02
  },
  {
    "mol": "Cc1ccc2c(N)c(C(N)=O)sc2n1",
    "log10 microsomal CLint": 1.11
  },
  {
    "mol": "O=C([C@H]1CCCCN1)N1CCN(c2nc(NCc3ccc(Cl)cc3Cl)c3cccnc3n2)CC1",
    "log10 microsomal CLint": 1.38
  },
  {
    "mol": "N=C(N)c1cc2c(-c3ccccc3)cccc2s1",
    "log10 microsomal CLint": 0.70
  },
  {
    "mol": "Cc1nn(-c2ccccc2)c(NS(=O)(=O)c2cccc(CN3CCOCC3)c2)c1C(=O)N[C@@H](C)C(C)(C)C",
    "log10 microsomal CLint": 0.95
  }
]

Okay, next one:
Provide only the value of recorded log10 microsomal CLint for O=C(Nc1c[nH]nc1-c1nc2cc(CN3CCOCC3)ccc2[nH]1)NC1CC1
0.92
